assay: qHTS RealTime-Glo MT Cell Viability Assay in HEK293 cells - 32 hour (AID 1224868); details: RealTime-Glo luminescence; series mostly up to 76.8 µM; also: nearly all actives have a fitted effect of over 50% in size
Results filed as inconclusive are left out. Calls of active or inactive are those of the source. Calls follow the shape of the dose curve; as a rule, active = well fitted cell-killing curve with a large enough effect in the repeat runs; inconclusive = weak or mixed curves, or effect the other way; inactive = flat fitted curve, though single readings scatter.
Just give me one of these, please: 1 (yes) (active), 0 (no) (inactive)

Record excerpt, results attached:
| compound | assigned class |
| --- | --- |
| CNC(=O)CN(CCN(CCN(CC(=O)[O-])CC(=O)NC)CC(=O)[O-])CC(=O)[O-].O.[Gd+3] | 0 (no) |
| CN1CCC(N(Cc2cccs2)c2ccccc2)CC1 | 0 (no) |
| CN1C[C@H]2c3ccccc3Oc3ccc(Cl)cc3[C@@H]2C1 | 0 (no) |
| CC(C)Nc1ccc(NC(C)C)c2c1C(=O)c1ccccc1C2=O | 0 (no) |
| C=C1[C@H]2CC[C@@H]3[C@H]2C(C)(C)CCC[C@]13C | 0 (no) |
| CC(=O)[O][Al][O]C(C)=O | 0 (no) |
| COc1ccc(C(=O)c2ccc(OC)cc2O)c(O)c1 | 1 (yes) |
| CCCC(=O)Nc1ccc(O)c(C(C)=O)c1 | 0 (no) |
| O=S(c1cc(Cl)cc(Cl)c1O)c1cc(Cl)cc(Cl)c1O | 0 (no) |
| O=C(NCC1CN(c2ccc(N3CCOCC3=O)cc2)C(=O)O1)c1ccc(Cl)s1 (configuration not stated) | 0 (no) |

Q) Recorded call for CC(COCCO)OCCO (configuration not stated) ?
A) 0 (no)

Q) Recorded call for CN(C)CCN(Cc1ccsc1)c1ccccn1 ?
A) 0 (no)

Q) Recorded call for CC(C)(COC(=O)c1ccccc1)COC(=O)c1ccccc1 ?
A) 0 (no)

Q) Recorded call for O=C(NCCO[N+](=O)[O-])c1cccnc1 ?
A) 0 (no)

====

Biological target: Bile acid receptor (Homo sapiens) (UniProt Q96RI1)
Sequence (Q96RI1 whole entry, looked up): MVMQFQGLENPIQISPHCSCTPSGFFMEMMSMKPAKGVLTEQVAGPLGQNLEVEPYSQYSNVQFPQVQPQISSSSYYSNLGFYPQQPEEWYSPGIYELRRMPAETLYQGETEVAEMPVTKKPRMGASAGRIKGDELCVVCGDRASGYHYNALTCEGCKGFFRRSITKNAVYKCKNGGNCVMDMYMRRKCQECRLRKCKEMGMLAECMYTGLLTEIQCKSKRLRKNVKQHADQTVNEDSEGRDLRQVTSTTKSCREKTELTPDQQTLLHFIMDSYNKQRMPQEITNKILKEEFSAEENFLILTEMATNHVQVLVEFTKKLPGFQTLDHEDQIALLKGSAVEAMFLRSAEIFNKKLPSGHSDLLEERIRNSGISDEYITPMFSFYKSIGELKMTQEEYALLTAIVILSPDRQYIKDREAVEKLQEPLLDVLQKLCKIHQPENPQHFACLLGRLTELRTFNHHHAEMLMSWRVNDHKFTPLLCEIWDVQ
Test: qHTS assay to identify small molecule agonists of the farnesoid-X-receptor (FXR) signaling pathway (AID 743220); also: % is scaled to controls: 0 for no effect and ±100 for the full control effect
Details: HEK293T FXR-UAS-bla, beta-lactamase FRET ratio, 16 h; series mostly up to 62.6 µM
Text: National Center for Advancing Translational Sciences [NCATS] NIH Chemical Genomics Center [NCGC] U.S. Environmental Protection Agency [EPA] National Institutes of Environmental Health Sciences [NIEHS] National Toxicology Program [NTP] U.S. Food and Drug Administration [FDA] The farnesoid-X-receptor (FXR), a nuclear hormone receptor, is highly expressed in liver, intestine, kidney and adrenal cortex. Natural ligands of FXR are the bile acids (Cholic acid, Chenodeoxy cholic acid etc). […]
Results filed as inconclusive are left out. Activity calls are given as the source filed them. The call rests on the fitted dose curve; in most records, active means well fitted activation curve with a large enough effect in the signal ratio in the repeat runs (not every such curve was filed as active); inconclusive means weak or mixed curves, or effect the other way; inactive means flat fitted curve, though single readings scatter; the % refers to the signal ratio.
experimental endpoint: activation

| substance smiles | experimental endpoint | experimental result |
| --- | --- | --- |
| COc1ccc(C(=O)Nc2nc3ccccc3c(NCc3ccccc3)c2C#N)cc1 | activation | inactive |
| CC(C)(C)Cl | activation | inactive |
| O=C(Cl)c1cc(C(=O)Cl)cc(C(=O)Cl)c1 | activation | inactive |

====

assay: A CellTox Green Cytotoxicity Assay to monitor cytotoxicity in HEK293 cells - 40 hour (AID 1224871); conditions: CellTox Green fluorescence; series mostly up to 76.8 µM; also: % is scaled to controls: 0 for no effect and ±100 for the full control effect; nearly all actives have a fitted effect of over 45% in size
Results filed as inconclusive are left out. The source made the active and inactive calls. The call rests on the fitted dose curve; in most records, active means well fitted activation curve with a large enough effect in the repeat runs; inconclusive means weak or mixed curves; inactive means flat fitted curve, though single readings scatter.
Just give me one of these, please: 1 (yes) (active), 0 (no) (inactive)

Record excerpt, results attached:
| compound | assigned class |
| --- | --- |
| CN(C)c1ccc(CCO)cc1 | 0 (no) |
| O=C(O)c1nc(Cl)c(Cl)c(Cl)c1Cl | 0 (no) |
| CCCC(=O)Nc1ccc(O)c(C(C)=O)c1 | 0 (no) |
| CC(C)(C)Cl | 0 (no) |
| O=C(c1ccc(F)cc1)C1CCN(CCn2c(=S)[nH]c3ccccc3c2=O)CC1 | 0 (no) |

Note: attention shifts to another entry.
Q) Recorded call for O=C(O)c1ccc(-n2nc(-c3ccccc3O)nc2-c2ccccc2O)cc1 ?
A) 0 (no)

Sourced from PubChem BioAssay (Tox21)
